Values of IC50 for PDE1C (Homo sapiens, UniProt Q14123), collected from a number of published sources:
Assay readout: IC50 (µM)

INSERT INTO results (mol, assay_readout, quantitative_result) VALUES
  ('Cc1ncsc1-c1cc(NCc2ncn(C)n2)c2c(C(C)C)nn(C)c2n1', 'IC50', 0.046),
  ('CCOc1nccc(C)c1-c1cc(N[C@@H]2CCOC2)c2c(cnn2C(C)C)n1', 'IC50', 0.58);

(A) CCCOc1ncccc1-c1nc2c(C)nn(C(C)C)c2cc1C
(B) CCOc1ncccc1-c1cc(NCc2ccc(OC)nc2)c2c(C(C)C)nn(C)c2n1
(C) CCc1ncc2c(=O)n(C)c(Cc3ccc(-c4cccc(F)n4)cc3)cn12
Query block: I would appreciate it if you could sort these 3 compounds by IC50, starting from the smallest number. To answer, write out the labels according to the requested order.
Result block: B, A, C
(B: 0.046 µM, A: 0.22 µM, C: 0.578 µM)

----------
pIC50: −log10 of the molar value.
Assay read-out pIC50 on UniProt Q14123; records merged from the literature.

INSERT INTO results (mol, result) VALUES
  ('Cc1ccncc1Nc1nc(CC2CCCCC2)[nH]c(=O)c1C#N', '< 5.40');

Kindly note: UniProt Q14123, `CO[C@@H](C)c1ncc2c(=O)n3c(nn12)N[C@@H](c1ccc(Cl)cc1)CC3` , pIC50 value reported: > 6.00

Considering `CCCCn1c(=O)c2nnc(C3(C4CC4)CC3)n2c2ncc(C(C)C)cc21` , its pIC50 with UniProt Q14123 was recorded as > 9.30

Response field pIC50 (UniProt Q14123) for item `O=c1c2cnc(C3COC3)n2nc2n1CC[C@H](c1ccc(Cl)cc1)N2` : 5.00 to 6.00
